Entry source: the Deep4Chem optical property database

# method: solvent given as SMILES
# conditionsUsed: in CCOCC
Below: a set of entries, each annotated with reported emission maximum.
readout: emission maximum (nm)

[
  {
    "compound": "O=c1ccc2cc3c(cc2o1)OCC3",
    "readout": "emission maximum",
    "value": 397
  },
  {
    "compound": "CN(C)c1ccc(C2=Cc3c4ccccc4c4ccccc4[n+]3[B-](F)(F)O2)cc1",
    "readout": "emission maximum",
    "value": 513
  },
  {
    "compound": "CN(CC(O)c1cccc(O)c1)c1ccc([N+](=O)[O-])c(C2CC(c3cccc4ccccc34)=NN2c2ccccc2)c1 (stereo not drawn)",
    "readout": "emission maximum",
    "value": 497
  }
]
